B1: glmS ribozyme (parent)
chain: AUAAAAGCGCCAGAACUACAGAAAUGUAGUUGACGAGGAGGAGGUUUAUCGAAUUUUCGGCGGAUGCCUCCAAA

variants of: B1; test: self-cleavage kobs at 40 uM GlcN6P; higher = faster cleavage; RNA array; details: with glucosamine-6-phosphate
Variants at the floor of the assay were thinned out.
Endpoint Name: self-cleavage kobs at 40 uM GlcN6P

# count of solved cases: 4
INSERT INTO measurements (query_sequence, endpoint_name, observed_value) VALUES
  ('AUAAAAGCGCCAGAACUACAGAAAUGUAGCUGACGAGGACGAGGUUUAGCAAAUUUUCGGCGGAUGCCUCCAAA', 'self-cleavage kobs at 40 uM GlcN6P', '< 1e-05 s⁻¹'),
  ('AUAAAAGCGUCAGAACUACAGAAAUGUAGUUGACGUGGAGGAGGUUUAUCGAAUUUUCGGCGGAUGCCUCCAAA', 'self-cleavage kobs at 40 uM GlcN6P', '< 1e-05 s⁻¹'),
  ('AUAAAAGCGGCAGAACUACAGAAAUGUAGUUGACGAGGAGGAGGUUUAUCGAAUUUUCGGCGGAUGCCACCAAA', 'self-cleavage kobs at 40 uM GlcN6P', '< 1e-05 s⁻¹'),
  ('AUAAAAGCGCCAGAACUACAGAAAUGUAGUUGGCGCGGAGGAGGUUUAUCGAAUUUUCGGCGGAUGCCUCCAAA', 'self-cleavage kobs at 40 uM GlcN6P', '< 1e-05 s⁻¹');

Input line: Supply self-cleavage kobs at 40 uM GlcN6P value. Item: AUAAAAGCGCCAGAACUACAGAAAUGUAGUUGACCAGGAGUAGGUUUAUCGAAUUUUCGGCGUAUGCCUCCAAA
Output line: < 1e-05 s⁻¹

Input line: Supply self-cleavage kobs at 40 uM GlcN6P value. Item: AUAAAAGCGCCAGUACUACAGAAAUGUAGUUGACGAGGAGGAGGUUUAUCGAAUGUUUGGCGGAUUGCUCCAAA
Output line: 0.00272 s⁻¹

Input line: Supply self-cleavage kobs at 40 uM GlcN6P value. Item: AUAAAAGCGCCAGAACUACAGAAAUGUAGUUGACGAGGAGGAAGUUUAUCGAAUUUUCGGCGGAUGCUUCCAAA
Output line: 0.00208 s⁻¹

Input line: Supply self-cleavage kobs at 40 uM GlcN6P value. Item: AUAAAAGCGCCCGAACUACAGAAAUGUAGUUGACGAGGAGGAGGUUUAUGGAAUUUUCGGCGGAUGCCUCCAAA
Output line: 5.75e-05 s⁻¹

Input line: Supply self-cleavage kobs at 40 uM GlcN6P value. Item: AUAAAAGCGCCAGAACUACAGAAAUGUAGUUGACGAGGAGGAAGUUUAUCGAAUUUUCGGCGGAUGGGUCCAAA
Output line: 5.46e-05 s⁻¹

Input line: Supply self-cleavage kobs at 40 uM GlcN6P value. Item: AUAAAAGCGCCAGAACUACAGAAAUGUAGUUGACGCAGAGGAGGUUUAUCGAAUUUUCGGCGGAUGCCUCCAAA
Output line: < 1e-05 s⁻¹

Input line: Supply self-cleavage kobs at 40 uM GlcN6P value. Item: AUAAAAGCGCCAGAACUACAGAAAUGUAGUUGACGAGGAGGAGCUAUAUCGAAUUUUCGGCGGAUGCCUCCAAA
Output line: < 1e-05 s⁻¹

Origin of values: the supplement of paper PMC7125110
